Target or system: full-length NS3/NS4A-2 (HCV NS3 protease) (Hepatitis C virus genotype 1a)
Construct: Recombinant E. coli or Baculovirus full-length NS3 was diluted to 3.33 μM with assay buffer; made in house; host or cells: E. coli or baculovirus (BV) expression system
Sequence (P27958 1027-1657): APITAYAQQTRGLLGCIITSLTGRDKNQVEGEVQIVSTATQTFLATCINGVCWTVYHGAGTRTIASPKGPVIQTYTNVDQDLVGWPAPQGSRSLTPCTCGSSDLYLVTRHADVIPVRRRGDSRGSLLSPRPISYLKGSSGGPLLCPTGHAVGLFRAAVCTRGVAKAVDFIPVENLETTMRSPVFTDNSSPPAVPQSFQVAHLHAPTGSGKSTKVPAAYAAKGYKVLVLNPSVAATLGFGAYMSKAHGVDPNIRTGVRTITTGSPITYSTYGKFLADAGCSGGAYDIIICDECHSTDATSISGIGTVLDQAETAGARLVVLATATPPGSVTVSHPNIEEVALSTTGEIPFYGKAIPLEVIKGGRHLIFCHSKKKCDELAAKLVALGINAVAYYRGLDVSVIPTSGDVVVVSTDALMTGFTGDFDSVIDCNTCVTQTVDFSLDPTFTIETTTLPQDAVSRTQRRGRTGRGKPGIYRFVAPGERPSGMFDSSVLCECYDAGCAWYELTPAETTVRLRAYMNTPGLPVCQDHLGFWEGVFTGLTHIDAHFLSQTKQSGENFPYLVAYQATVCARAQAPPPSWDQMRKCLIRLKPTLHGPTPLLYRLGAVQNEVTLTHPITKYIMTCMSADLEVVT
Experiment description: NS3-NS4 protease assay / NS3 inhibition assay (RETS1 substrate, fluorescence kinetic read)
Assay type: biochemical
Run conditions: recombinant E. coli or Baculovirus full-length NS3 with NS4A-2; read-out: NS3-NS4 IC50
IC50 values by entry

Structure smiles	IC50
CC(C)(C)OC(=O)N[C@H]1CCCCC/C=C\[C@@H]2C[C@@]2(C(=O)NS(=O)(=O)c2cc(Cl)sc2Cl)NC(=O)[C@@H]2C[C@@H](OC(=O)N3Cc4cccc(F)c4C3)CN2C1=O	< 0.1 µM
COC(=O)c1csc(S(=O)(=O)NC(=O)[C@@]23C[C@H]2/C=C\CCCCC[C@H](NC(=O)OC(C)(C)C)C(=O)N2CCC[C@H]2C(=O)N3)c1OC	> 10 µM
CC(C)(C)OC(=O)N[C@H]1CCCCC/C=C\[C@@H]2C[C@@]2(C(=O)NS(=O)(=O)c2cc3ccccc3s2)NC(=O)[C@@H]2CCCN2C1=O	< 10 µM
O=C(N[C@H]1CCCCC/C=C\[C@@H]2C[C@@]2(C(=O)O)NC(=O)[C@@H]2C[C@@H](OC(=O)N3Cc4ccncc4C3)CN2C1=O)OC1CCCC1	< 0.1 µM
O=C(N[C@H]1CCCCC/C=C\[C@@H]2C[C@@]2(C(=O)NS(=O)(=O)Nc2ccc(Cl)cc2)NC(=O)[C@@H]2CCCN2C1=O)OC1CCCC1	> 10 µM

Hey, just so you know, these numbers are from patent US7829665B2.
